- assayInfo: chemical genetic growth profiling, strain panel (AID 1159580);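 further: tested at 20 µM; growth read once vehicle control cultures reached saturation at 30 °C; 1 = growth at the plate median or of vehicle wells; lower values mean less growth of the strain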
- conditionInfo: S. cerevisiae deletion strains, growth OD, locus YMR231W, strain pep5, hits give low values
Screen size: about 5,500 compounds; about 2,000 (36%) were called active. Another 18% or so got no clear call; they are omitted. The list shows a part of the results.
measuredAttribute: normalized growth
Give a plain numeric answer without units written out.

Some compounds with recorded normalized growth:
compound | normalized growth
O=C(O)COc1cc(Cl)c(Cl)cc1Cl | 1.01
O=C(O)c1ccccc1OP(=O)(O)O | 1
c1ccc(CN(CC2=NCCN2)c2ccccc2)cc1 | 1

**Q:** Tell me the measured normalized growth of COc1cc(OC)c2c(c1)O[C@H](c1ccc(OC)c(OC)c1)[C@@H](O)C2 , please.
**A:** 0.973

**Q:** Tell me the measured normalized growth of CN1C2CC3C[C@H]1C(O3)C2O (some centres undefined) , please.
**A:** 0.988

**Q:** Tell me the measured normalized growth of CCC1(c2ccc(N)cc2)CCC(=O)NC1=O (centres undefined) , please.
**A:** 0.973

**Q:** Tell me the measured normalized growth of COc1ccc([C@@H]2CC(=O)c3c(O)cc(O)cc3O2)cc1O , please.
**A:** 0.98

**Q:** Tell me the measured normalized growth of CCC1(C)CC(=O)NC1=O (centres undefined) , please.
**A:** 0.983

**Q:** Tell me the measured normalized growth of CC(=O)O[C@@](C)(CCC=C(C)C)C1CC=C(C)CC1 (some centres undefined) , please.
**A:** 0.994

**Q:** Tell me the measured normalized growth of CC(C)(CO)C(O)C(=O)NCCCO (centres undefined) , please.
**A:** 1.01

**Q:** Tell me the measured normalized growth of CN=C(NC#N)NCCSCc1nc(N=C(N)N)cs1 , please.
**A:** 0.984

**Q:** Tell me the measured normalized growth of OCCN(CCO)c1nc(N2CCCCC2)c2nc(N(CCO)CCO)nc(N3CCCCC3)c2n1 , please.
**A:** 0.989

**Q:** Tell me the measured normalized growth of C=CC1=C(C(=O)O)N2C(=O)[C@@H](NC(=O)/C(=N/O)c3csc(N)n3)[C@H]2SC1 , please.
**A:** 1.02

**Q:** Tell me the measured normalized growth of Cn1cc[nH]c1=S , please.
**A:** 0.981

Origin of the recorded values: PubChem BioAssay AID1159580
